Below, each entry is listed alongside its reported normalized area under the dose-response curve.
# Tested on: KMS26 (cancer type: MM)
# assay.notes: normalized area under the dose-response curve (viability relative to DMSO control) (fraction); higher = less sensitive (more viable cells)
# condition.description: exposure time not given
Simply state the number, no unit and no words.

In the examples that follow, each entry is paired with its recorded normalized area under the dose-response curve.
compound: C=CC(=O)N1CCC[C@@H](n2nc(-c3ccc(Oc4ccccc4)cc3)c3c(N)ncnc32)C1
result: 0.763
//
compound: Cc1cn(-c2cc(NC(=O)c3ccc(C)c(Nc4nccc(-c5cccnc5)n4)c3)cc(C(F)(F)F)c2)cn1
result: 0.948
//
compound: O=C(c1ccc(F)c(F)c1Nc1ccc(I)cc1F)N1CC(O)([C@@H]2CCCCN2)C1
result: 0.766

# lookup: normalized area under the dose-response curve of Nc1ncn([C@H]2C[C@H](O)[C@@H](CO)O2)c(=O)n1
0.897

// same read-out, input: Cc1noc2c1-c1ccccc1C(c1ccc(Cl)cc1)=N[C@H]2CC(N)=O
0.492

// same read-out, input: CCCS(=O)(=O)Nc1ccc(F)c(C(=O)c2c[nH]c3ncc(-c4ccc(Cl)cc4)cc23)c1F
0.965

// same read-out, input: CC(C)(C)c1cc(NC(=O)Nc2ccc(-c3cn4c(n3)sc3cc(OCCN5CCOCC5)ccc34)cc2)no1
0.934

// same read-out, input: C[C@@H]1C[C@H]2[C@@H]3CCC4=CC(=O)C=C[C@]4(C)[C@@]3(F)[C@@H](O)C[C@]2(C)[C@@]1(O)C(=O)CO
0.773

----------
# Test system: OCI-MY7 (cancer type: MM)
# assay.notes: normalized area under the dose-response curve (viability relative to DMSO control) (fraction); higher = less sensitive (more viable cells)
# condition.description: exposure time not given
Record yes (1) whenever normalized area under the dose-response curve is at 0.9 or higher; record no (0) when lower.

Example cases with answers are listed next.
compound: Nc1nc(F)nc2c1ncn2[C@@H]1O[C@H](COP(=O)(O)O)[C@@H](O)[C@@H]1O [Fludarabine phosphate]
test.system: OCI-MY7 (cancer type: MM)
answer.label: yes (1)
//
compound: O=C(c1ccc(F)c(F)c1Nc1ccc(I)cc1F)N1CC(O)([C@@H]2CCCCN2)C1
test.system: OCI-MY7 (cancer type: MM)
answer.label: no (0)
//
compound: Cc1ccc(F)c(NC(=O)Nc2ccc(-c3cccc4[nH]nc(N)c34)cc2)c1
test.system: OCI-MY7 (cancer type: MM)
answer.label: no (0)
//
compound: COc1cc(Nc2c(C#N)cnc3cc(OCCCN4CCN(C)CC4)c(OC)cc23)c(Cl)cc1Cl
test.system: OCI-MY7 (cancer type: MM)
answer.label: no (0)

Could you tell me if the measured normalized area under the dose-response curve of Nc1ncn([C@@H]2O[C@H](CO)[C@@H](O)[C@H]2O)c(=O)n1 reaches 0.9 or more?
no (0)

// same read-out, input: O=C(/C=C\n1cnc(-c2cc(C(F)(F)F)cc(C(F)(F)F)c2)n1)NNc1cnccn1 [Selinexor]
no (0)

----------
Below, each entry is listed alongside its reported normalized area under the dose-response curve.
# Test system: KMS12PE (cancer type: MM)
# assay.notes: normalized area under the dose-response curve (viability relative to DMSO control) (fraction); higher = less sensitive (more viable cells)
# condition.description: exposure time not given

In the examples that follow, each entry is paired with its recorded normalized area under the dose-response curve.
compound: COc1cc2nccc(Oc3ccc(NC(=O)C4(C(=O)Nc5ccc(F)cc5)CC4)cc3)c2cc1OC [Cabozantinib]
result: 0.72

compound: CC(=O)c1c(C)c2cnc(Nc3ccc(N4CCNCC4)cn3)nc2n(C2CCCC2)c1=O [Palbociclib]
result: 0.74

We next turn to a different compound, shown below.
# lookup: normalized area under the dose-response curve of CC(C)(C)c1cc(NC(=O)Nc2ccc(-c3cn4c(n3)sc3cc(OCCN5CCOCC5)ccc34)cc2)no1 [Quizartinib]
0.87

----------
# Tested on: SU-DHL2 (cancer type: DLBCL)
# assay.notes: normalized area under the dose-response curve (viability relative to DMSO control) (fraction); higher = less sensitive (more viable cells)
# condition.description: exposure time not given
Record class 1 whenever normalized area under the dose-response curve is at 0.9 or higher; record class 0 when lower.

Example cases with answers are listed next.
molecule.smiles: CC(C)C[C@H](NC(=O)CNC(=O)c1cc(Cl)ccc1Cl)B(O)O
answer.label: class 0
--
molecule.smiles: CC(C)C[C@H](NC(=O)[C@H](CCc1ccccc1)NC(=O)CN1CCOCC1)C(=O)N[C@@H](Cc1ccccc1)C(=O)N[C@@H](CC(C)C)C(=O)[C@@]1(C)CO1
answer.label: class 0

Consider now this further compound.
Could you tell me if the measured normalized area under the dose-response curve of COc1cc(C(=O)O)ccc1NC(=O)[C@@H]1N[C@@H](CC(C)(C)C)[C@](C#N)(c2ccc(Cl)cc2F)[C@H]1c1cccc(Cl)c1F reaches 0.9 or more?
class 1

----------
Below, each entry is listed alongside its reported normalized area under the dose-response curve.
# Tested on: RPMI 8226 (cancer type: MM)
# assay.notes: normalized area under the dose-response curve (viability relative to DMSO control) (fraction); higher = less sensitive (more viable cells)
# condition.description: exposure time not given
Simply state the number, no unit and no words.

In the examples that follow, each entry is paired with its recorded normalized area under the dose-response curve.
molecule: CS(=O)(=O)c1ccc(C(=O)Nc2ccc(Cl)c(-c3ccccn3)c2)c(Cl)c1
test.system: RPMI 8226 (cancer type: MM)
result: 0.889
--
molecule: Cc1cn(-c2cc(NC(=O)c3ccc(C)c(Nc4nccc(-c5cccnc5)n4)c3)cc(C(F)(F)F)c2)cn1
test.system: RPMI 8226 (cancer type: MM)
result: 0.89
--
molecule: COc1nc(N)nc2c1ncn2[C@@H]1O[C@H](CO)[C@@H](O)[C@@H]1O
test.system: RPMI 8226 (cancer type: MM)
result: 0.915

We next turn to a different molecule, shown below.
# lookup: normalized area under the dose-response curve of Nc1cccc2c1CN(C1CCC(=O)NC1=O)C2=O (centres undefined) [Lenalidomide]
0.915

----------
# System: JJN3 (cancer type: MM)
# assay.notes: normalized area under the dose-response curve (viability relative to DMSO control) (fraction); higher = less sensitive (more viable cells)
# condition.description: exposure time not given
Below, each entry is listed alongside its reported normalized area under the dose-response curve.
Simply state the number, no unit and no words.

In the examples that follow, each entry is paired with its recorded normalized area under the dose-response curve.
molecule.smiles: CC(=O)Nc1cccc(-n2c(=O)n(C3CC3)c(=O)c3c(Nc4ccc(I)cc4F)n(C)c(=O)c(C)c32)c1
result: 0.858
//
molecule.smiles: CC[C@H](Nc1ncnc2[nH]cnc12)c1nc2cccc(F)c2c(=O)n1-c1ccccc1
result: 0.834

We next turn to a different molecule, shown below.
# value lookup — system JJN3 (cancer type: MM), readout normalized area under the dose-response curve, item Nc1ncn([C@H]2C[C@H](O)[C@@H](CO)O2)c(=O)n1
0.912

----------
# Test system: My-La (cancer type: TCL)
# assay.notes: normalized area under the dose-response curve (viability relative to DMSO control) (fraction); higher = less sensitive (more viable cells)
# condition.description: exposure time not given
reported.endpoint: normalized area under the dose-response curve
Simply state the number, no unit and no words.

In the examples that follow, each entry is paired with its recorded normalized area under the dose-response curve.
compound: Cc1cn(-c2cc(NC(=O)c3ccc(C)c(Nc4nccc(-c5cccnc5)n4)c3)cc(C(F)(F)F)c2)cn1 [Nilotinib]
result: 0.978
--
compound: Nc1nc(F)nc2c1ncn2[C@@H]1O[C@H](COP(=O)(O)O)[C@@H](O)[C@@H]1O [Fludarabine phosphate]
result: 0.879
--
compound: CO[C@H]1C[C@@H]2CC[C@@H](C)[C@@](O)(O2)C(=O)C(=O)N2CCCC[C@H]2C(=O)O[C@H]([C@H](C)C[C@@H]2CC[C@@H](OCCO)[C@H](OC)C2)CC(=O)[C@H](C)/C=C(\C)[C@@H](O)[C@@H](OC)C(=O)[C@H](C)C[C@H](C)/C=C/C=C/C=C/1C [Everolimus]
result: 0.711

# value lookup — system My-La (cancer type: TCL), readout normalized area under the dose-response curve, item CCN(CC)CCNC(=O)c1c(C)[nH]c(/C=C2\C(=O)Nc3ccc(F)cc32)c1C [Sunitinib]
0.772

----------
# Tested on: NCI-H929 (cancer type: MM)
# assay.notes: normalized area under the dose-response curve (viability relative to DMSO control) (fraction); higher = less sensitive (more viable cells)
# condition.description: exposure time not given
reported.endpoint: normalized area under the dose-response curve
Simply state the number, no unit and no words.

In the examples that follow, each entry is paired with its recorded normalized area under the dose-response curve.
molecule: COc1nc(N)nc2c1ncn2[C@@H]1O[C@H](CO)[C@@H](O)[C@@H]1O
test.system: NCI-H929 (cancer type: MM)
result: 0.95
--
molecule: CS(=O)(=O)c1ccc(C(=O)Nc2ccc(Cl)c(-c3ccccn3)c2)c(Cl)c1
test.system: NCI-H929 (cancer type: MM)
result: 0.87
--
molecule: CC1(COc2ccc3c(c2)ncn3-c2ccc3cccc(N4CCC(N)CC4)c3n2)COC1
test.system: NCI-H929 (cancer type: MM)
result: 0.45
--
molecule: Cc1[nH]c2ccccc2c1CCNCc1ccc(/C=C/C(=O)NO)cc1
test.system: NCI-H929 (cancer type: MM)
result: 0.16
--
molecule: Nc1cccc2c1C(=O)N(C1CCC(=O)NC1=O)C2=O (centres undefined) [Pomalidomide]
test.system: NCI-H929 (cancer type: MM)
result: 0.78
--
molecule: CCCS(=O)(=O)Nc1ccc(F)c(C(=O)c2c[nH]c3ncc(-c4ccc(Cl)cc4)cc23)c1F
test.system: NCI-H929 (cancer type: MM)
result: 0.79
--
molecule: CC1(C)CCC(CN2CCN(c3ccc(C(=O)NS(=O)(=O)c4ccc(NCC5CCOCC5)c([N+](=O)[O-])c4)c(Oc4cnc5[nH]ccc5c4)c3)CC2)=C(c2ccc(Cl)cc2)C1
test.system: NCI-H929 (cancer type: MM)
result: 0.82
--
molecule: Cc1ccc(NC(=O)c2ccc(CN3CCN(C)CC3)cc2)cc1Nc1nccc(-c2cccnc2)n1
test.system: NCI-H929 (cancer type: MM)
result: 0.93

We next turn to a different molecule, shown below.
# lookup: normalized area under the dose-response curve of Nc1nc(Cl)nc2c1ncn2[C@@H]1O[C@H](CO)[C@@H](O)[C@@H]1F
0.43

Data provenance is the supplement of paper PMC7214452.
